Listing of recorded IC50 by entry.
Target: DNA gyrase (Escherichia coli, UniProt P0AES4+P0AES6)
Assay: 50% inhibitory concentration against DNA-gyrase
Format: protein-complex assay
API: value field is a number in µM; no unit string.

Use these answered entries as a reference point.
CNc1c(F)c(N2CCNCC2)c(F)c2c1c(=O)c(C(=O)O)cn2C1CC1 = 36.5
CCNCC1CCN(c2c(F)c(NC)c3c(=O)c(C(=O)O)cn(C4CC4)c3c2F)C1 (stereo not given) = 32.8
CN1CCN(c2c(F)c(N)c3c(=O)c(C(=O)O)cn(C4CC4)c3c2F)CC1 = 7.4
Nc1c(F)c(N2CCC(N)C2)c(F)c2c1c(=O)c(C(=O)O)cn2C1CC1 (stereo not given) = 7.14
NCC1CCN(c2c(F)c(N)c3c(=O)c(C(=O)O)cn(C4CC4)c3c2F)C1 (stereo not given) = 7.66
CC1COc2c(N3CCN(C)CC3)c(F)c(N)c3c(=O)c(C(=O)O)cn1c23 (stereo not given) = 69.1

Lab note: next compound to report on.
Field IC50 (entry O=C(O)c1cn(C2CC2)c2c(F)c(N3CCNCC3)c(F)cc2c1=O ) reads 8.02

---

System: Providencia rettgeri
Assay: Antibacterial activity against Providencia rettgeri M1771
Assay type: functional
value_kind: MIC (µg/mL)
API: value field is a number in µg/mL; no unit string.

Use these answered entries as a reference point.
CNc1c(F)c(N2CCNCC2)c(F)c2c1c(=O)c(C(=O)O)cn2C1CC1 = 0.8
CCNCC1CCN(c2c(F)cc3c(=O)c(C(=O)O)cn(C4CC4)c3c2F)C1 (stereo not given) [PD-117558] = 0.2
O=C(O)c1cn(C2CC2)c2c(F)c(N3CCNCC3)c(F)cc2c1=O = 0.1

Field MIC (entry CC1COc2c(N3CCN(C)CC3)c(F)c(N)c3c(=O)c(C(=O)O)cn1c23 (stereo not given) ) reads 1.6

---

Target: DNA gyrase (Escherichia coli, UniProt P0AES4+P0AES6)
Test: 50% inhibitory concentration against DNA-gyrase
value_kind: pIC50
Recall that pIC50 is obtained by taking minus log10 of the concentration measured in molar.

Use these answered entries as a reference point.
CCNCC1CCN(c2c(F)cc3c(=O)c(C(=O)O)cn(C4CC4)c3c2F)C1 (centres undefined) [PD-117558] = 5.45
Nc1c(F)c(N2CCNCC2)c(F)c2c1c(=O)c(C(=O)O)cn2C1CC1 = 5.11
CNCC1CCN(c2c(F)c(N)c3c(=O)c(C(=O)O)cn(C4CC4)c3c2F)C1 (centres undefined) = 5.12

Lab note: next compound to report on.
Field pIC50 (entry CCNCC1CCN(c2c(F)c(N)c3c(=O)c(C(=O)O)cn(C4CC4)c3c2F)C1 (centres undefined) ) reads 5.18

---

Tested on: Escherichia coli
Assay: Median protective dose against Escherichia coli, determined in acute, lethal systemic infection in female charles river CD-1 mice (po)
Type: functional
Settings: Escherichia coli, po; read-out: PD50
Listing of recorded log10 of ED50 by entry.
Please note: log10 values; quantity ED50; unit mg/kg.

Use these answered entries as a reference point.
CNc1c(F)c(N2CCNCC2)c(F)c2c1c(=O)c(C(=O)O)cn2C1CC1 = 0.18
O=C(O)c1cn(C2CC2)c2cc(N3CCNCC3)c(F)cc2c1=O = 0.08
CC1COc2c(N3CCN(C)CC3)c(F)cc3c(=O)c(C(=O)O)cn1c23 (stereo unspecified) = 0.30
CCNCC1CCN(c2c(F)c(NC)c3c(=O)c(C(=O)O)cn(C4CC4)c3c2F)C1 (stereo unspecified) = 1.04
Nc1c(F)c(N2CCNCC2)c(F)c2c1c(=O)c(C(=O)O)cn2C1CC1 = -0.10

Field log10 of ED50 (entry Nc1c(F)c(N2CCC(N)C2)c(F)c2c1c(=O)c(C(=O)O)cn2C1CC1 (stereo unspecified) ) reads 0.20

Field log10 of ED50 (entry NCC1CCN(c2c(F)c(N)c3c(=O)c(C(=O)O)cn(C4CC4)c3c2F)C1 (stereo unspecified) ) reads 1.08
